- Test Target: human recombinant serotonin (5-Hydroxytryptamine) 5-HT2C receptor (Homo sapiens, UniProt P28335)
- Construct: expressed in transfected cells; host or cells: CHO-K1 cells
- Sequence (P28335 33-458): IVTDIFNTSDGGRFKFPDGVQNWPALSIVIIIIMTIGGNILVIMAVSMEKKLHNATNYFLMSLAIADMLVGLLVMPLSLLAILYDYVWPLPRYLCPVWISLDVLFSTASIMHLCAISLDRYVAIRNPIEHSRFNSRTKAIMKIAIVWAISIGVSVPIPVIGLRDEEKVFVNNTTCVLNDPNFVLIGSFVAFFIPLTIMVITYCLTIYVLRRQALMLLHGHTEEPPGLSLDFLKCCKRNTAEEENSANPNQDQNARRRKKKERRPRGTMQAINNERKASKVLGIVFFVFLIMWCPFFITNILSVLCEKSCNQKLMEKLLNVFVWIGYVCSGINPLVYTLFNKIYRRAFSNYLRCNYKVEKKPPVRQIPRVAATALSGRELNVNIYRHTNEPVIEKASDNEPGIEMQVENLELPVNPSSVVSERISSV
- Assay Procedure: Serotonin 5-HT2C radioligand binding ([3H]Mesulergine)
- Test Parameters: read-out: Serotonin 5-HT2C, inhibition of ligand binding (1 μM)
Listed next: entries and their corresponding inhibition at 1 µM.
Return type: number; implicit unit %.

CN1C2CCC1c1c(n(CC(=O)N3CCCC3)c3ccc(Cl)cc13)C2 (stereo not drawn) [Compound 60]: 15
CC(=O)N1CCN(C(=O)CCn2c3c(c4cc(Cl)ccc42)C2CCC(C3)N2C)CC1 (stereo not drawn) [Compound 8]: -6
CN1C2CCC1c1c(n(C#Cc3ccc(F)cc3)c3ccc(Cl)cc13)C2 (stereo not drawn) [Compound 138]: 97
Cc1ccc2c(c1)c1c(n2CCc2ccc(C)nc2)CC2CCC1N2C (stereo not drawn) [Compound 32]: -3
Cc1ncc(CCn2c3c(c4cc(Cl)ccc42)C2CCC(C3)N2C)cn1 (stereo not drawn) [Compound 82]: 60

Req: Look up inhibition at 1 µM: Cc1ccc(C(O)Cn2c3c(c4cc(Cl)ccc42)C2CCC(C3)N2C)cn1 (stereo not drawn) [Compound 52]
Resp: 11

Req: Given CN1[C@H]2CC[C@@H]1c1c(n(CCc3ccc(F)cc3)c3ccc(F)cc13)C2 [Compound 95] , state its recorded inhibition at 1 µM.
Resp: 55

Req: Would you mind telling me what inhibition at 1 µM value was observed for CN1[C@@H]2CC[C@H]1c1c(n(CCc3ccc(F)cc3)c3ccc(F)cc13)C2 [Compound 94] ?
Resp: 75

###

- Test Target: human recombinant histamine H1 receptor (Homo sapiens)
- Construct: expressed in transfected cells; host or cells: CHO cells
- Sequence (P35367 whole entry): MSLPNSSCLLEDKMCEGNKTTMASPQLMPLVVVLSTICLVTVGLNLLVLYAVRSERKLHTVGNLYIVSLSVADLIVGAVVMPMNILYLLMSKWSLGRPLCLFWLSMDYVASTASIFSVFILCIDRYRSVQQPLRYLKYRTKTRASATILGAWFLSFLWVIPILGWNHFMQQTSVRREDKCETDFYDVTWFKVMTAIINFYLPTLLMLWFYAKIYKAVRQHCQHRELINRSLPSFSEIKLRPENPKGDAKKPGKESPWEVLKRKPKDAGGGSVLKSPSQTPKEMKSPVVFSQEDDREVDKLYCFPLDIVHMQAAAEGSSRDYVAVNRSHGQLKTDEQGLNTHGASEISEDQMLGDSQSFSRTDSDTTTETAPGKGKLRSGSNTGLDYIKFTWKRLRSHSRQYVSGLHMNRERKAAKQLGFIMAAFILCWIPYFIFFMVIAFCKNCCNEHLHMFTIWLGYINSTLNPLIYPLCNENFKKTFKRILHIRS
- Assay Procedure: Histamine H1 radioligand binding ([3H]Pyrilamine)
- Test Parameters: compound at 1 μM; inhibition of specific [3H]Pyrilamine binding; read-out: Histamine Binding (1 μM) H1, Percentage Inhibition
Parameter: inhibition at 1 µM. Scope: all listed entries.
The answer is to be given in %; state only the numeric part.

Req: For the molecule COc1ccc(C#Cn2c3c(c4cc(C)ccc42)C2CCC(C3)N2C)cc1F (centres unmarked) [Compound 155] , what inhibition at 1 µM is on record?
Resp: 10

Req: Would you mind telling me what inhibition at 1 µM value was observed for Cc1ccc2c(c1)c1c(n2CCc2ccc(C(F)(F)F)nc2)CC2CCC1N2C (centres unmarked) [Compound 71] ?
Resp: 33

Req: Could you tell me which inhibition at 1 µM is on file for CN1C2CCC1c1c(n(CC(=O)c3ccc(Cl)cc3)c3ccc(Cl)cc13)C2 (centres unmarked) [Compound 111] ?
Resp: 66

Req: What measured inhibition at 1 µM goes with CN1C2CCC1c1c(n(CCc3ccc(F)cc3)c3ccc(F)cc13)C2 (centres unmarked) [Compound 35] ?
Resp: 93

Req: Which inhibition at 1 µM value belongs to Cc1ccc2c(c1)c1c(n2CCC#N)CC2CCC1N2C (centres unmarked) [Compound 103] ?
Resp: 85

###

- Test Target: human recombinant histamine H2 receptor (Homo sapiens)
- Construct: expressed in transfected cells; host or cells: CHO-K1 cells
- Sequence (P25021 whole entry): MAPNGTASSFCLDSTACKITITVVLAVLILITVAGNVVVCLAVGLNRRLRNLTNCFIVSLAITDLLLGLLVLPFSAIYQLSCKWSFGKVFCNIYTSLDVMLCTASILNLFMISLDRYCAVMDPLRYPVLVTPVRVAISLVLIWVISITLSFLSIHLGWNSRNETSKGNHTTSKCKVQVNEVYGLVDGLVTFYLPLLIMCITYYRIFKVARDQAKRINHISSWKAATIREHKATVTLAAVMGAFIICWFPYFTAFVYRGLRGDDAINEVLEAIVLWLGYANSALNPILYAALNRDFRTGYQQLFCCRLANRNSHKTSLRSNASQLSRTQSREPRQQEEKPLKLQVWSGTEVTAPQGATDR
- Assay Procedure: Histamine H2 radioligand binding ([125I]Aminopotentidine)
- Test Parameters: compound at 1 μM; inhibition of specific [125I]Aminopotentidine binding; read-out: Histamine Binding (1 μM) H2, Percentage Inhibition
In this section we review reported inhibition at 1 µM values for a set of compounds.
Answer in %, number only, no unit symbol.

A selection of reference data follows.
CN1C2CCC1c1c(n(CCC#N)c3ccc(Cl)cc13)C2 (stereo not drawn): -4
C/C(=C\n1c2c(c3cc(C)ccc31)C1CCC(C2)N1C)c1ccccc1F (stereo not drawn): 41

Req: Could you share which inhibition at 1 µM value was measured for CN1C2CCC1c1c(n(CC(=O)c3ccc(Cl)cc3)c3ccc(Cl)cc13)C2 (stereo not drawn) ?
Resp: 33
